# Measurement Target: Cereblon/Casein kinase I alpha (Homo sapiens) (UniProt P48729+Q96SW2)
# Sequence (P48729 2-337 limits assumed): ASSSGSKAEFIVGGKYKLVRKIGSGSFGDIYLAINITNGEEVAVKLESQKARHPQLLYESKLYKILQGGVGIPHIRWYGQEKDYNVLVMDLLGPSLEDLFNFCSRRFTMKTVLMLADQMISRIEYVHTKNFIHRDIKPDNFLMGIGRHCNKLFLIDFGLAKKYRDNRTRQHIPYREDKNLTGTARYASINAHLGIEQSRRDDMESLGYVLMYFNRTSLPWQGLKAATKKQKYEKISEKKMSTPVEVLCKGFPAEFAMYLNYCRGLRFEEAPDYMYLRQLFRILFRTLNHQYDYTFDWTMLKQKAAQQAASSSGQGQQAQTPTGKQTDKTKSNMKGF
# Sequence (Q96SW2 whole entry partner): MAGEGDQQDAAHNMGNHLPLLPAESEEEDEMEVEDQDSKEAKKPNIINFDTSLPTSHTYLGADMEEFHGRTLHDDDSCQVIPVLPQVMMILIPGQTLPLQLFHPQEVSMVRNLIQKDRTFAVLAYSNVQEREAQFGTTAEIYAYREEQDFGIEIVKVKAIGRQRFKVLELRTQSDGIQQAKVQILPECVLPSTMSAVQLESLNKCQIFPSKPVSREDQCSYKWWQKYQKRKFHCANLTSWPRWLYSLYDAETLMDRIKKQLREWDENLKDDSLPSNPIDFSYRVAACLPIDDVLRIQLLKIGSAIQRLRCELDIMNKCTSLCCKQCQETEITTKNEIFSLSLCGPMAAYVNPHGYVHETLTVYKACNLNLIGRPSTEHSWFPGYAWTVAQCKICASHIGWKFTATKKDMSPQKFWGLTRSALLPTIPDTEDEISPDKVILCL
# Test Summary: Protac activity at CRBN/CK1alpha (unknown origin) transfected in HEK293T cells at 100 nM incubated for 24 hrs by flow cytometry analysis relative to control
# Type: cell-based
Below, each entry is listed with its recorded Activity.
Quick note: unit goes after the number.

>  <Molecule>
O=C1CCC(N2Cc3cc(NC(=O)c4ccc5c(c4)CCCC5)ccc3C2=O)C(=O)N1 (centres undefined)

>  <Activity>
51%

$$$$
>  <Molecule>
CCOc1ccc2cc(C(=O)Nc3ccc4c(c3)CN(C3CCC(=O)NC3=O)C4=O)ccc2c1 (centres undefined)

>  <Activity>
71%

$$$$
>  <Molecule>
COc1cnc2cc(C(=O)Nc3ccc4c(c3)CN(C3CCC(=O)NC3=O)C4=O)ccc2c1 (centres undefined)

>  <Activity>
64%

$$$$

Would you kindly share the measured Activity for O=C1CCC(N2Cc3cc(NC(=O)c4ccc(Oc5ccccc5)cc4)ccc3C2=O)C(=O)N1 (centres undefined) ?
61%

Same again, this time with COc1ccc2cc(C(=O)Nc3ccc4c(c3)CN(C3CCC(=O)NC3=O)C4=O)ncc2c1 (centres undefined)
61%

Please answer likewise for CC(C)Oc1ccc2cc(C(=O)Nc3ccc4c(c3)CN(C3CCC(=O)NC3=O)C4=O)ccc2c1 (centres undefined)
70%

Now consider O=C1CCC(N2Cc3cc(NC(=O)c4ccc5occc5c4)ccc3C2=O)C(=O)N1 (centres undefined) and answer again.
50%

Thanks! And O=C1CCC(N2Cc3cc(NC(=O)c4ccc5cc(O)ccc5c4)ccc3C2=O)C(=O)N1 (centres undefined) ?
55%

Also O=C1CCC(N2Cc3cc(NC(=O)C4=Cc5ccc(Br)cc5OC4)ccc3C2=O)C(=O)N1 (centres undefined) ?
62%
